target: T1, Siglec-8-Fc tagged protein (human Siglec-8 extracellular domain fused to an immunoglobulin Fc region) (human); test: BLI (Octet Red 384), Siglec-8-Fc on anti-human capture sensors, Fab in solution
T1 construct: also called Siglec-8 Fc fusion protein
T1 sequence (chain, as listed by the source limits assumed): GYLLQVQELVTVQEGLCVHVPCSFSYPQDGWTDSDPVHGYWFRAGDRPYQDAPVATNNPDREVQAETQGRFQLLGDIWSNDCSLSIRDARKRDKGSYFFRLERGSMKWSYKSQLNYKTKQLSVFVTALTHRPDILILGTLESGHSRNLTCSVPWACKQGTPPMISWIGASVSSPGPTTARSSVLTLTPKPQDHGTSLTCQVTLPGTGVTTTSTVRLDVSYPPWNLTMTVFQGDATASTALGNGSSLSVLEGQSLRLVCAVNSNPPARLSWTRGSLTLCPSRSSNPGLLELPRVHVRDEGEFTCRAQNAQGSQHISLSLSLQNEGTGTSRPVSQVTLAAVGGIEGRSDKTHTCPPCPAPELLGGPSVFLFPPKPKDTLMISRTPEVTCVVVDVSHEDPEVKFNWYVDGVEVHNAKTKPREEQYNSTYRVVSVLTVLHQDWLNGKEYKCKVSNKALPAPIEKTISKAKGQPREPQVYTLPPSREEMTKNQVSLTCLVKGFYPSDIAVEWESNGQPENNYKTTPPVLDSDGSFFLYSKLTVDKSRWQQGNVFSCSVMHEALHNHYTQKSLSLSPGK
value kind: kon (M⁻¹ s⁻¹)
Number in M⁻¹ s⁻¹, nothing else.

HEKA Fab fragment (Fab, Fab made by papain digestion) VH: EVQLVESGGGLVQPGGSLRLSCAASGFSLTIYGAHWVRQAPGKGLEWVGVIWAGGSTNYNSALMSRFTISKDNSKNTVYLQMNSLRAEDTAVYYCARDGSSPYYYSMEYWGQGTTVTVSS light: EIVLTQSPATLSLSPGERATLSCSATSSVSYMHWFQQKPGQAPRLLIYSTSNLASGIPARFSGSGSGTDFTLTISSLEPEDFAVYYCQQRSSYPFTFGPGTKLDIKRTVAAPSVFIFPPSDEQLKSGTASVVCLLNNFYPREAKVQWKVDNALQSGNSQESVTEQDSKDSTYSLSSTLTLSKADYEKHKVYACEVTHQGLSSPVTKSFNRGEC ... 1.04e+06

Query: Which kon is reported for this binder? chimeric 2E2 Fab fragment (Fab, Fab made by papain digestion of the human IgG1 chimeric antibody) VH: QVQLKESGPGLVAPSQSLSITCTVSGFSLTIYGAHWVRQPPGKGLEWLGVIWAGGSTNYNSALMSRLSISKDNSKSQVFLKINSLQTDDTALYYCARDGSSPYYYSMEYWGQGTSVTVSS light: QIILTQSPAIMSASPGEKVSITCSATSSVSYMHWFQQKPGTSPKLWIYSTSNLASGVPVRFSGSGSGTSYSLTISRMEAEDAATYYCQQRSSYPFTFGSGTKLEIKRTVAAPSVFIFPPSDEQLKSGTASVVCLLNNFYPREAKVQWKVDNALQSGNSQESVTEQDSKDSTYSLSSTLTLSKADYEKHKVYACEVTHQGLSSPVTKSFNRGEC
Reply: 951000

Query: Please give the measured kon for this binder: HEKF Fab fragment (Fab, Fab made by papain digestion) VH: EVQLVESGGGLVQPGGSLRLSCAASGFSLTIYGAHWVRQAPGKGLEWVGVIWAGGSTNYNSALMSRFTISKDNSKNTVYLQMNSLRAEDTAVYYCARDGSSPYYYSMEYWGQGTTVTVSS light: EIVLTQSPATLSLSPGERATLSCSATSSVSYMHWFQQKPGQAPRLLIYSTSNLASGIPARFSGSGSGTDYTLTISSLEPEDFAVYYCQQRSSYPFTFGPGTKLDIKRTVAAPSVFIFPPSDEQLKSGTASVVCLLNNFYPREAKVQWKVDNALQSGNSQESVTEQDSKDSTYSLSSTLTLSKADYEKHKVYACEVTHQGLSSPVTKSFNRGEC
Reply: 920000

Query: Could you tell me which kon is on file for mouse 2E2 Fab fragment (Fab, Fab made by papain digestion of the murine IgG1; also called murine 2E2 Fab) VH: QVQLKESGPGLVAPSQSLSITCTVSGFSLTIYGAHWVRQPPGKGLEWLGVIWAGGSTNYNSALMSRLSISKDNSKSQVFLKINSLQTDDTALYYCARDGSSPYYYSMEYWGQGTSVTVSS light: QIILTQSPAIMSASPGEKVSITCSATSSVSYMHWFQQKPGTSPKLWIYSTSNLASGVPVRFSGSGSGTSYSLTISRMEAEDAATYYCQQRSSYPFTFGSGTKLEIKADAAPTVSIFPPSSEQLTSGGASVVCFLNNFYPKDINVKWKIDGSERQNGVLNSWTDQDSKDSTYSMSSTLTLTKDEYERHNSYTCEATHKTSTSPIVKSFNRNEC ?
Reply: 1.14e+06
